- Target Under Test: T1, pCD163-SRCR4-7-huFc (porcine, UniProt Q2VL90 372-818, limits assumed)
- T1 construct: also called pCD163:SRCR4-7-Fc; pCD163-SRCR4-7-Fc; not shown: human Fc (huFc)
- T1 sequence (Q2VL90 372-818 limits assumed): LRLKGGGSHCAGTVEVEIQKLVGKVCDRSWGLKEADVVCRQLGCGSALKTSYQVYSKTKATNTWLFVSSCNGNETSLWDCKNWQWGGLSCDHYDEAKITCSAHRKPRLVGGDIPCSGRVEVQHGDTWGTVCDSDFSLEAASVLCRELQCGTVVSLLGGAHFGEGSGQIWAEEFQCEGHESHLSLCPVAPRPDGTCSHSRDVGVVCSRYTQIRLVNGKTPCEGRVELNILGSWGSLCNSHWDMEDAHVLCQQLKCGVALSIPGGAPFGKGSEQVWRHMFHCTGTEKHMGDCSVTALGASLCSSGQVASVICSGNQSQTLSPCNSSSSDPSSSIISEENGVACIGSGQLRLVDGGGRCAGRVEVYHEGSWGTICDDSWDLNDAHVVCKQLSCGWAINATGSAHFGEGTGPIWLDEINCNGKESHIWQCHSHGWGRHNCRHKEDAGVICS
- Assay Protocol: SPR (Biacore 3000), antigen amine-coupled on CM5, VHH injected, pH 7.4
Measured koff, listed per entry for reference.
Give the number; s⁻¹ is assumed, so skip it.

Consider the reported koff for these binders:
VHH 012 (2C07) (VHH, Llama single domain antibody; also called 41(#12); VHCDR3 41(#12); not shown: tags: c-myc tag in periplasmic extract (ELISA, FACS); FLAG and His tags in purified VHH (SPR, infection assays)) VHH: QLQLVESGGGLVQAGGSLRLSCVASGRTFSRYAMGWFRQAPGKEREFVAAIAWSTGSTYYANSVKGRFAISGDNAKNTVYLQMNSLKPEDTAVYYCAAETRYCSGFGCLDPRTYGSWGQGTQVTVSS : 0.00426
VHH 002 (1B04) (VHH, Llama single domain antibody; also called 76(#2); VHCDR3 76(#2); not shown: tags: c-myc tag in periplasmic extract (ELISA, FACS); FLAG and His tags in purified VHH (SPR, infection assays)) VHH: QVQLVESGGGLVQAGGSLRLSCAASGLTFVTYSMGWFRQAPGKEREFVAAHRWSGSAYYAEHADSVEGRFTISRDYAKNMLYLQMNSLKHEDTAVYYCAAGVGSAAQYRYWGRGTQVTVSS : 0.0149
VHH 019 (3E11) (VHH, Llama single domain antibody; also called 47(#19); VHCDR3 47(#19); not shown: tags: c-myc tag in periplasmic extract (ELISA, FACS); FLAG and His tags in purified VHH (SPR, infection assays)) VHH: QVQLQESGGGLVQVGSSLRLSCVTSGRTPSRYVMGWFRQAPGQEREFVAAISWSGRAPYADSVKGRFTISRDNAKNTVYLQMNSLKPEDTGVYYCAGGEGAIKWTTLDAYDYWGQGTQVTVSS : 0.0103

Please turn your attention to the following entry.
Value lookup for koff; key = VHH 017 (3D03) (VHH, Llama single domain antibody; also called 29(#17); VHCDR3 29(#17); not shown: tags: c-myc tag in periplasmic extract (ELISA, FACS); FLAG and His tags in purified VHH (SPR, infection assays)) VHH: QLQLVESGGGLVQPGGSLRLSCAASGFTLDDYTIGWFRQAPGKEREGVSCINSITSNTYYADSVKGRFTISRDNAKNTVYLQMNSLTAEDTAIYYCAADSGLFSGSSCLKYRAMRFGSWGQGTQVTVSS
0.00345
